These data points were gathered from paper PMC11784839.

Target: tau (Homo sapiens)
Sequence (P10636 623-695 limits assumed): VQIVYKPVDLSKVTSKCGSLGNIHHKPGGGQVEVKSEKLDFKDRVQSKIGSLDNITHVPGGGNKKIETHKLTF
Experiment: MCE Phenols Library screening, tau biosensor cell seeding assay (AvZ)
Assay type: cell-based
Conditions: puncta, replicate 2
EXPERIMENTAL READOUT: raw data 2

Could you share what raw data 2 was measured for `CC(C)=CCc1c(O)c(CC=C(C)C)c2oc3c(O)cccc3c(=O)c2c1O` , tested on tau (Homo sapiens)?
5782.42

Next: `COc1cc(-c2coc3c([C@@H]4O[C@H](CO)[C@@H](O)[C@H](O)[C@H]4O)c(O)ccc3c2=O)ccc1O`
11744.3

Next: COc1cc(CC(C)C(C)Cc2ccc(O)c(OC)c2)ccc1O (stereo not shown) [Dihydroguaiaretic acid]
6088.67

Next: `CC(=O)OC(C)(C)CC(=O)O[C@H](CC=C(C)C)C1=CC(=O)c2c(O)ccc(O)c2C1=O`
18618.6

Next: O.O=C(O)c1cc(O)c(O)c(O)c1 [Gallic acid (hydrate)]
1053.49

Next: O=C1C[C@@H](c2ccc(O)c(O)c2)Oc2cc(O[C@@H]3O[C@H](CO)[C@@H](O)[C@H](O)[C@H]3O)cc(O)c21 [Eriodictyol-7-O-glucoside]
17219.4

Next: `COc1cc(/C=C/c2cc(O)cc(O)c2)ccc1O`
18866.6

----------
Target: tau (Homo sapiens)
Assay: MCE Phenols Library screening, tau biosensor cell seeding assay (AvZ)
Type: cell-based
Conditions: puncta, replicate 2
The label is class 1 for raw data 2 below 10000 and class 0 for raw data 2 equal to or exceeding 10000.

Solved cases below.
{"columns": ["COMPOUND", "DISCRETE LABEL"],
 "data": [
  ["COc1cc(-c2cc(=O)c3c(O)cc(O)cc3o2)ccc1O", "class 0"],
  ["COc1cc2c(=O)c3c(O)c([C@@H]4O[C@H](CO[C@@H]5OC[C@](O)(CO)[C@H]5O)[C@@H](O)[C@H](O)[C@H]4O)c(O)cc3oc2cc1O", "class 0"],
  ["Cc1c(C)c2c(c(C)c1O)CCC(C)(CCCC(C)CCCC(C)CCCC(C)C)O2 (racemic)", "class 0"],
  ["O=C(O)c1ccc(O)c(O)c1", "class 0"],
  ["CC(=O)c1c(O)c(C)c(O)c2c1OC1=CC(=O)C(C(C)=O)C(=O)C12C (stereo not drawn)", "class 0"]
]}

Is the reported raw data 2 for CC(=O)O[C@H]1C(=O)c2c(O)cc(O)cc2O[C@@H]1c1ccccc1 [Pinobanksin 3-acetate] strictly below 10000?
class 0

Next: `Cc1ccc(C(C)C)cc1O`
class 0

Next: `COc1cc(C(=O)O)cc(OC)c1O`
class 0

Next: `COc1ccc(-c2cc(=O)c3c(O)c(OC)c(OC)cc3o2)cc1O`
class 0

Next: `Cc1ccc(O)c(O)c1`
class 1

----------
Molecular target: tau (Homo sapiens)
Experiment: MCE Phenols Library screening, tau biosensor cell seeding assay (AvZ)
Type: cell-based
Conditions: Z score, replicate 2
The label is met for Z Repl 2 below -0.2 and not met for Z Repl 2 equal to or exceeding -0.2.

Solved cases below.
{"columns": ["COMPOUND", "DISCRETE LABEL"],
 "data": [
  ["COC(=O)c1c2c(c3ccccc3c1O)OC(C)(C)C=C2", "not met"],
  ["O=c1c(O[C@@H]2O[C@@H](CO)[C@H](O)[C@H]2O)c(-c2ccc(O)c(O)c2)oc2cc(O)cc(O)c12", "not met"],
  ["O=C(O)Cc1cccc(O)c1 [3-Hydroxyphenylacetic acid]", "met"],
  ["O=C(/C=C/c1ccc(O)cc1)CC(=O)/C=C/c1ccc(O)cc1", "not met"],
  ["O=C(O)C(O)Cc1ccc(O)cc1 (stereo not drawn) [Hydroxyphenyllactic acid]", "not met"],
  ["O=C(/C=C/c1ccc(O)c(O)c1)N[C@@H](Cc1ccc(O)c(O)c1)C(=O)O [Clovamide]", "met"]
]}

Is the reported Z Repl 2 for `CC(=O)O[C@H](CC=C(C)C)C1=CC(=O)c2c(O)ccc(O)c2C1=O` strictly below -0.2?
not met

Next: `COc1cc2c(O)c3c(c(-c4ccc5c(c4)OCO5)c2cc1OC)C(=O)OC3`
met

Next: `COc1cc2ccc(=O)oc2c(O)c1OC`
met
